Listed below: Ki values for each entry.
Test System: T1, rat Y4 receptor (rat, UniProt Q63447 1-375)
T1 construct: Full-length receptor (375 aa) transiently expressed in COS-7 cells; membranes used; also called rs16b; rat Y4 homolog
T1 sequence (Q63447 whole entry R262P): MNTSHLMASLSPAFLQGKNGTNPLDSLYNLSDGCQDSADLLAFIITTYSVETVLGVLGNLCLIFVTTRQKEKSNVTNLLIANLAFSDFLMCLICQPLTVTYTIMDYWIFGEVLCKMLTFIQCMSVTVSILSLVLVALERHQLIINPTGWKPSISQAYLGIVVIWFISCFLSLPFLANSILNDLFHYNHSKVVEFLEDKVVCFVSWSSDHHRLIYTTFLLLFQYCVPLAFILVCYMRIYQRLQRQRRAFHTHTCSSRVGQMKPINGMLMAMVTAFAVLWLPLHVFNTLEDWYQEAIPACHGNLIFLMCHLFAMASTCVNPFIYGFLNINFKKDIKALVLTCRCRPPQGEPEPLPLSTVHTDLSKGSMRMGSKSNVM
Protocol Description: 125I-PYY displacement, COS-7 membranes
Where no end group is shown, it is not given here.

Binder: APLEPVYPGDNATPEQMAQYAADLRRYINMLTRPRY-NH2 (peptide, UniProt P01298 30-65, looked up, mature; also called human PP; PP, human) [human pancreatic polypeptide]
Ki / nM: 0.12

Binder: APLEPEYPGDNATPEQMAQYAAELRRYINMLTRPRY-NH2 (peptide, UniProt P01302 30-65, looked up, mature; also called bovine PP) [PP, bovine]
Ki / nM: 0.15

Binder: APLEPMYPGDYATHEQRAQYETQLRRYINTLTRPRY-NH2 (peptide, UniProt P06303 30-65, looked up, mature; also called rat PP) [PP, rat]
Ki / nM: 0.2

Binder: LTRPRY-NH2 (peptide, UniProt P01298 60-65, looked up, range 60-65; also called human PP31-36) [PP31-36, human]
Ki / nM: 20
